assay_target: PI3K α (p110α/p85α) (Homo sapiens)
Construct: purchased Upstate / Millipore Corporation
Sequence (P42336 whole entry, one chain of several): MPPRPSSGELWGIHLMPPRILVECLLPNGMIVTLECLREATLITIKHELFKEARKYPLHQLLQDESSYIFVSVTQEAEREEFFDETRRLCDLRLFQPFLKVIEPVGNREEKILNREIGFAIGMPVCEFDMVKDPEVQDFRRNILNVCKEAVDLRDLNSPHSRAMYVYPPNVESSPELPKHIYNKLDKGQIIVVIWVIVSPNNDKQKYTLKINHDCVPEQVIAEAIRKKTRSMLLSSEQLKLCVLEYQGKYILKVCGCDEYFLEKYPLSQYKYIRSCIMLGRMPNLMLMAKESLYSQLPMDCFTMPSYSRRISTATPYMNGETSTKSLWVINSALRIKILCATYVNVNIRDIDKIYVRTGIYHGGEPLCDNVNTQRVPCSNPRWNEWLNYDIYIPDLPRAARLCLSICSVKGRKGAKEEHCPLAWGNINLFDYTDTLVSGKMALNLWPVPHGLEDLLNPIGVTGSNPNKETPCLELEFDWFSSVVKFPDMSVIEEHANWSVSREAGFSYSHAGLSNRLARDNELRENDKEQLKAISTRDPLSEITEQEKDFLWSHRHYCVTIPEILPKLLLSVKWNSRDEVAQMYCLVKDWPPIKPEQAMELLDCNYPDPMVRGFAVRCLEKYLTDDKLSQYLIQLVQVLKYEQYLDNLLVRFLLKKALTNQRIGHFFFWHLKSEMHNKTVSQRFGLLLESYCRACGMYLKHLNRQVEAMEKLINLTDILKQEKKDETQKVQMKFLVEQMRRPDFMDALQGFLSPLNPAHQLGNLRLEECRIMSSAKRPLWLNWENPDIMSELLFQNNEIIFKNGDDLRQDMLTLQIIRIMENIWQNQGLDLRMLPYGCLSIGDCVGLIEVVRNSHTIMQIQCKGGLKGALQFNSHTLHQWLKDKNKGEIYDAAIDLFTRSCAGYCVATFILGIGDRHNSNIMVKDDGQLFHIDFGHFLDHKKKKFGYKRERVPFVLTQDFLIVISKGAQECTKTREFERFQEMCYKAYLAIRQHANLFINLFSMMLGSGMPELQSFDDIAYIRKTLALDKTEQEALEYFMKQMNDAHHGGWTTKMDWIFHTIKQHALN
assay_protocol: PI 3-Kinase (human) HTRF assay, PI3K α
Assay type: biochemical
reported_conditions: read-out: PI3K α IC50
readout_type: IC50

Worked examples, 5 molecules total:
CN1CCN(C(=O)c2cnc3ccc(-c4ccc5nc(N)sc5c4)cn23)CC1 [Compound 146]; < 10000 nM
Cc1ncc(-c2ccc3ncc(C(=O)N4CCOCC4)n3c2)c2cn[nH]c12 [Compound 530]; < 100 nM
CN(CCN1CCOCC1)c1cnc2ccc(-c3ccc4oc(N)nc4c3)cc2n1 [Compound 166]; < 1000 nM
Nc1nc2cc(-c3ccc4nccc(-c5cccnc5)c4c3)ccc2o1 [Compound 31]; < 100 nM
CC(=O)N1CCN(C2CN(c3cnc4ccc(-c5ccc6oc(N)nc6c5)cc4n3)C2)CC1 [Compound 327]; < 100 nM

Each of the following entries comes with a recorded value; kindly state IC50 for each.
1. CNC(=O)CN1CCN(c2cnc3ccc(-c4ccc5oc(N)nc5c4)cc3n2)CC1 [Compound 120]
2. C[C@H]1CN(C(=O)C2CN(c3cnc4ccc(-c5ccc6oc(N)nc6c5)cc4n3)C2)CCN1 [Compound 268]
3. Nc1nc2cc(-c3ccc4ncc(C(=O)N5CCC(N6CC(F)(F)C6)C5)n4c3)ccc2o1 (centres unmarked) [Compound 498]

1. < 100 nM
2. < 100 nM
3. < 1000 nM

###

assay_target: PI3K δ (Homo sapiens, UniProt O00329)
Construct: purchased Upstate / Millipore Corporation
Sequence (O00329 whole entry): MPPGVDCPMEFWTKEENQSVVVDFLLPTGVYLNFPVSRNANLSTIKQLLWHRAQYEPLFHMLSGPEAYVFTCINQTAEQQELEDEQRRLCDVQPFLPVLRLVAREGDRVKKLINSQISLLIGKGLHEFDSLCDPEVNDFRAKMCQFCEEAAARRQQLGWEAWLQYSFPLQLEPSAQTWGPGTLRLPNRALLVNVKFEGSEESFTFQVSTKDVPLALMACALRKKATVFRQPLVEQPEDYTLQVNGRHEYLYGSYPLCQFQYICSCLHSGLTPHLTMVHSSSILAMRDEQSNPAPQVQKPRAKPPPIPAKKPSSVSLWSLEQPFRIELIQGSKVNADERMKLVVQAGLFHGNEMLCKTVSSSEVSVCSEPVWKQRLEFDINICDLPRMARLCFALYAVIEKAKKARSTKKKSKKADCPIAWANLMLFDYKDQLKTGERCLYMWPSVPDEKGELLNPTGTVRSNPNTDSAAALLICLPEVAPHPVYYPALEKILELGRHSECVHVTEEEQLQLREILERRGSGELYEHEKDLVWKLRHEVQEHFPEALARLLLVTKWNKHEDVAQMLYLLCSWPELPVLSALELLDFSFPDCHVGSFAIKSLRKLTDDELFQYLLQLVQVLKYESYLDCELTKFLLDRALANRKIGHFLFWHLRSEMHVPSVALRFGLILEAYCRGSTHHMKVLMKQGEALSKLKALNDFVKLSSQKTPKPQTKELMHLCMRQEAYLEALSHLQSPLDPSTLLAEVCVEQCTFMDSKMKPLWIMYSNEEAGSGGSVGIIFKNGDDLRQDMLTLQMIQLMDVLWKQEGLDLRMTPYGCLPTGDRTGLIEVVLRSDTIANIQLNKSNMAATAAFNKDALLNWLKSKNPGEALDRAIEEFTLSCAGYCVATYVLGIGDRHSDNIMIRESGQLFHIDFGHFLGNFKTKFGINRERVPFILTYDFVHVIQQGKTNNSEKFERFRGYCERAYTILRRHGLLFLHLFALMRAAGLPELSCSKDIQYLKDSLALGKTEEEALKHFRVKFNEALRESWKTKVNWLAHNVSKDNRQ
Sequence (P27986 whole entry partner): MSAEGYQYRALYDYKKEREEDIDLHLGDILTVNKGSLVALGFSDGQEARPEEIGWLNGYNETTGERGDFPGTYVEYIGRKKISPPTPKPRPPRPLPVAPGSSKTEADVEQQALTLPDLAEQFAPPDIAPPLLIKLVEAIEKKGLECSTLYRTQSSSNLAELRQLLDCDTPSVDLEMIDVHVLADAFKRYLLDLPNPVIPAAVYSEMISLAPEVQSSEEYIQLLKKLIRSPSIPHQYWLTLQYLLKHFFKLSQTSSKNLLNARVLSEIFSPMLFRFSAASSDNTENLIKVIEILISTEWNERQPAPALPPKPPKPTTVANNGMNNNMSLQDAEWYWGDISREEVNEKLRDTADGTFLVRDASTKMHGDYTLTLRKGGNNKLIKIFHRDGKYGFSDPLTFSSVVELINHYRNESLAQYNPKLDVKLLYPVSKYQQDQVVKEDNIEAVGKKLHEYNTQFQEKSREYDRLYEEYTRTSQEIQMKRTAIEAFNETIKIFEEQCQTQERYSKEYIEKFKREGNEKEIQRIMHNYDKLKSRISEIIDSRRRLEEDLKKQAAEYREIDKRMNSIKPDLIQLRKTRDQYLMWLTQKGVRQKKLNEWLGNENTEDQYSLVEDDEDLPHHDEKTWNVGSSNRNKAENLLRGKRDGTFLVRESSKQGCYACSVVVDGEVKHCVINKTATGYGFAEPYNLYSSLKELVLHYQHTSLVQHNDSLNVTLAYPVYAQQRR
assay_protocol: PI 3-Kinase (human) HTRF assay, PI3K δ
Type: biochemical
reported_conditions: read-out: PI3K δ IC50
pIC50: −log10 of the molar value.
Please go through the items and note down their pIC50.

Worked examples, 10 compounds total:
Nc1nc2cc(-c3ccc4ncn(CCN5CCOCC5)c(=O)c4c3)ccc2o1; < 5.00
CO[C@@H]1CCN(C(=O)c2cnc3ccc(-c4ccc5oc(N)nc5c4)cn23)C1; < 5.00
Nc1nc2cc(-c3ccc4nc(N)sc4c3)ccc2o1; > 5.00
Nc1nsc2c(-c3ccc4ncc(C(=O)N5CCOCC5)n4c3)cccc12; < 5.00
CN1CC(C(=O)N2CCN(c3cnc4ccc(-c5ccc6oc(N)nc6c5)cc4n3)CC2)C1; > 6.00
Nc1nc2cc(-c3ccc4ncc(C(=O)N5CC(N6CC[C@H](O)C6)C5)n4c3)ccc2o1; > 5.00
Nc1nc2cc(-c3ccc4ncc(N5CCOCC5)n4c3)ccc2o1; < 5.00
CN1CCN(C(=O)c2cnc3ccc(-c4ccc5nc(N)sc5c4)cn23)CC1; < 5.00
CS(=O)(=O)N1CCC(n2cnc3ccc(-c4ccc5oc(N)nc5c4)cc3c2=O)CC1; < 5.00
Cc1cc2ncc(C(=O)N3CCOCC3)n2cc1-c1ccc2oc(N)nc2c1; < 5.00

Each of the following entries comes with a recorded value; kindly state pIC50 for each.
1. Cn1ncc2c(-c3ccc4ncc(C(=O)N5CCOCC5)n4c3)cncc21
2. Nc1nc2cc(-c3ccc4ncc(C(=O)N5CCOCC5)n4c3)cc(Cl)c2o1
3. CC(C)n1cnc2ccc(-c3ccc4oc(N)nc4c3)cc2c1=O

1. < 5.00
2. > 5.00
3. < 5.00

Each of the following entries comes with a recorded value; kindly state pIC50 for each.
1. COc1ncc(-c2ccc3ncc(C(=O)N4CCOCC4)n3c2)cc1NS(C)(=O)=O
2. C[C@H]1CN(c2cnc3ccc(-c4cccc5c(N)noc45)cc3n2)CCN1
3. Nc1nc2cc(-c3ccc4ncc(NCCN5CCCC5)nc4c3)ccc2o1
4. Nc1nc2cc(-c3ccc4ncn(C5CCOCC5)c4c3)ccc2o1
5. CN(C)C1CCN(C(=O)c2cnc3ccc(-c4ccc5oc(N)nc5c4)cn23)CC1

1. > 5.00
2. < 5.00
3. > 6.00
4. < 5.00
5. < 5.00
